- assay target: Estrogen receptor (Rattus norvegicus) (UniProt P06211+Q62986)
- experiment summary: Relative Binding Affinity (RBA) for estrogen receptor in ovariectomized rats
- Format: protein assay
// returns NOT MET unless relative binding affinity (RBA) is strictly below 4, in which case MET

# count of solved cases: 3
>  <record smiles>
COc1ccc2c(c1)OC(C)(C)C(c1ccccc1)=C2c1ccc(OCCN2CCCCC2)cc1

>  <assay target>
Estrogen receptor (Rattus norvegicus) (UniProt P06211+Q62986)

>  <class assignment>
MET

$$$$
>  <record smiles>
COc1ccc2c(c1)OC(C)(C)[C@@H](c1ccccc1)[C@@H]2c1ccc(OCCN2CCCCC2)cc1

>  <assay target>
Estrogen receptor (Rattus norvegicus) (UniProt P06211+Q62986)

>  <class assignment>
MET

$$$$
>  <record smiles>
COc1ccc2c(c1)OC(C)(C)[C@H](c1ccccc1)[C@@H]2c1ccc(OCCN2CCCC2)cc1

>  <assay target>
Estrogen receptor (Rattus norvegicus) (UniProt P06211+Q62986)

>  <class assignment>
MET

$$$$

Asked: A record lists CC1(C)Oc2cc(O)ccc2C(c2ccc(OCCN3CCCC3)cc2)=C1c1ccccc1 . Is its relative binding affinity (RBA) below 4?
Given back: NOT MET

Asked: A record lists CC1(C)Oc2cc(O)ccc2[C@@H](c2ccc(OCCN3CCCC3)cc2)[C@@H]1c1ccccc1 . Is its relative binding affinity (RBA) below 4?
Given back: NOT MET

The reported measurements were obtained from ChEMBL document CHEMBL1130303.
